Values of Ki for Adenosine receptor A1 (Homo sapiens, UniProt P30542), collected from a number of published sources:
measurement_kind: Ki (nM)

See these solved cases before continuing.
CCC1CN2C(=O)N(Cc3ccccc3)c3nc(-c4cc(OCc5ccccc5)nn4C)[nH]c3C2=N1 (racemic)	1680
Nc1nc(-c2cccs2)nc2cn(-c3ccccc3O)nc12	159
C=CCCn1c(Br)nc2c(N)ncnc21	4900

[a] N#Cc1c(NCc2ccccc2)nc(SCCO)c(C#N)c1-c1ccco1
[b] COc1cccc(-c2n[nH]c(Cc3ccc(Cl)c(Cl)c3)n2)c1
In terms of reported Ki, does a or b have the smaller number? Kindly state the label of the option you pick.
a

[a] CCNC(=O)[C@H]1O[C@@H](n2cnc3c(Nc4ccc(OCC(=O)Nc5ccc(Br)cc5)cc4)ncnc32)[C@H](O)[C@@H]1O
[b] O=C(Nc1nnc(-c2ccccc2)[nH]1)c1ccccc1
Which value of Ki is numerically greater: that of a or that of b ? Label of pick, please.
b
(b: 1900 nM, a: 3.5 nM)
